# tgt: type α4β2 central nicotinic receptors (Rattus norvegicus, UniProt P09483+P12390)
# Sequence (P09483 31-630): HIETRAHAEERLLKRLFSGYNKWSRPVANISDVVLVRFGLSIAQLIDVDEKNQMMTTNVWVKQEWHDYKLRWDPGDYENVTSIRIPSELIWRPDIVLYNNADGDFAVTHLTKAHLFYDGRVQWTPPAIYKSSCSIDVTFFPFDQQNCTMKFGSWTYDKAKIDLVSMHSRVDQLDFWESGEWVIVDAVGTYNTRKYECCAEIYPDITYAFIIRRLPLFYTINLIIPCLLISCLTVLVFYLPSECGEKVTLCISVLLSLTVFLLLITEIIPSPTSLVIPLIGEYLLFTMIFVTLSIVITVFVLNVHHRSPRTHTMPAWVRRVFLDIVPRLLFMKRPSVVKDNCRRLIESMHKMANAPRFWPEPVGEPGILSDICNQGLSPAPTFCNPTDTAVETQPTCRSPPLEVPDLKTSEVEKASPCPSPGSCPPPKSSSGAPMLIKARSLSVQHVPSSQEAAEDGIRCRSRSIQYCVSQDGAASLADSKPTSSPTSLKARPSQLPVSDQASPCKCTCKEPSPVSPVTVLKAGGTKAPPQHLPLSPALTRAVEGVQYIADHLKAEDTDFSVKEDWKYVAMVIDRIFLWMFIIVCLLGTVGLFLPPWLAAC
# Sequence (P12390 25-500): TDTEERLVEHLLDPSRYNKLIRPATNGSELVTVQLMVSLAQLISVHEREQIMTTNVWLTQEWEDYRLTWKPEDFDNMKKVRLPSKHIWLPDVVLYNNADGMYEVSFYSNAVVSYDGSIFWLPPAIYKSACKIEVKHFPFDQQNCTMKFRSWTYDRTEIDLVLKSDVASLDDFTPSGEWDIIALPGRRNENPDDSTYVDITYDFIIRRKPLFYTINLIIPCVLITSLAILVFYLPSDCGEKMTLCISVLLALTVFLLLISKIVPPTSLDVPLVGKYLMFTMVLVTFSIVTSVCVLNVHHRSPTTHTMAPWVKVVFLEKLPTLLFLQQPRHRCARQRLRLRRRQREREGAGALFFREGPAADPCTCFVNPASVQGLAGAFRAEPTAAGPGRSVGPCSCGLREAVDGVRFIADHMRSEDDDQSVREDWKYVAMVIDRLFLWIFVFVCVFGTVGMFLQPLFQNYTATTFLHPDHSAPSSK
# assay_comment: Displacement of binding of [3H]-cytisine on type α4β2 nicotinic receptors of rat brain
# condition_label: rat brain membranes
property: Ki (µM)

compound	property	numeric_value
CN[C@@]1(COc2cccnc2)C[C@@H]1C.Cl.Cl (single isomer, unassigned) [Example 2, Dihydrochloride]	Ki	0.069

====

The entries below are paired with their reported melting point.

compound	melting point
CNC1(COc2cccnc2)CC1(C)C.O=C(O)/C=C/C(=O)O.O=C(O)/C=C/C(=O)O (single isomer, unassigned) [Example 27]	115 to 118 °C
CN[C@@]1(COc2ccc(Cl)nc2)C[C@@H]1C.Cl (single isomer, unassigned) [11]	185 to 190 °C
CN[C@@]1(COc2cccnc2)C[C@@H]1C.Cl.Cl (single isomer, unassigned)	174 to 176 °C
CN[C@@]1(COc2cccnc2)C[C@H]1C.Cl.Cl (single isomer, unassigned) [21]	71 to 74 °C
CNC1(COc2cccnc2)CC1(C)C.O=C(O)/C=C/C(=O)O.O=C(O)/C=C/C(=O)O (single isomer, unassigned) [26]	124 to 127 °C
C[C@H]1C[C@@]1(N)COc1ccc(Cl)nc1.Cl (single isomer, unassigned)	183 to 186 °C

====

The entries below are paired with their reported melting point.

compound	melting point
CN[C@@]1(COc2ccc(Cl)nc2)C[C@@H]1C.Cl (single isomer, unassigned) [12]	188 to 192 °C
CN[C@@]1(COc2cccnc2)C[C@H]1C.Cl.Cl (single isomer, unassigned) [20]	69 to 72 °C
C[C@H]1C[C@]1(COc1ccc(Cl)nc1)N(C)C.Cl (single isomer, unassigned)	136 to 138 °C
C[C@H]1C[C@@]1(N)COc1cccnc1.Cl.Cl (single isomer, unassigned)	< 75 °C
